Experiment: Cmax in CD-1 mouse at 5 mg/kg, iv by LC-MS/MS method
Format: ADME, organism-based
Set-up: dose 5 mg/kg, route intravenous
Conditions: in vivo

{"CHEMICAL_STRUCTURE": "Cc1n[nH]c2ccc(-c3cc(N[C@@H](CO)c4ccccc4)cnc3-c3cc(F)ccc3O)cc12", "Cmax, ng/mL": 106}

###

Assay: Protein binding in plasma (unknown origin)
Type: ADME, cell-free
Settings: read-out: PPB (converted)
PARAMETER: fraction unbound

{"CHEMICAL_STRUCTURE": "Cc1n[nH]c2ccc(-c3cc(N[C@@H](CO)c4ccccc4)cnc3-c3cc(F)ccc3O)cc12", "RECORDED_VALUE": 0.0044}
